Ref: patent US10144742B2

# inhibition at 1 µM per entry
# target-entity: hNAMPT protein (Homo sapiens (Human), UniProt P43490)
# Sequence (P43490 whole entry): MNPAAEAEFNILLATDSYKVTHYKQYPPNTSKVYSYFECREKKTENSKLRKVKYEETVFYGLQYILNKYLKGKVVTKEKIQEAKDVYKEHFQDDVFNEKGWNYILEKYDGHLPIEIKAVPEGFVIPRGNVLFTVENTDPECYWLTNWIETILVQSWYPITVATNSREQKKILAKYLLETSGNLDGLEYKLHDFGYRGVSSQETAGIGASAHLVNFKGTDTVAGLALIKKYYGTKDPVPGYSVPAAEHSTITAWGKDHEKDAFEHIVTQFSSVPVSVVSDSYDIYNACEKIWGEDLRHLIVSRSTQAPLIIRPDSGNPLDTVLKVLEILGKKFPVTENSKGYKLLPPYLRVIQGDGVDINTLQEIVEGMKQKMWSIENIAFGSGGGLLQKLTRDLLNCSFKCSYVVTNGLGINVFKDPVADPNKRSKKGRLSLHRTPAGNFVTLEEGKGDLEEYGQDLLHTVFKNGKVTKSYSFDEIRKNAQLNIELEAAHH
# procedure-text: NAMPT enzyme assay (TR-FRET/HTRF, BodiPY ligand, anti 6His-Tb)
# Assay type: binding
# experimental-context: read-out: Percent Inhibition
Express your answer in %, writing the number without its unit.

> print(dat)
                                   molecule  numeric.readout
1  O=C(NCCCn1ccnc1)c1ccc2nc(N3CCC(C4CCNCC4)CC3)c(-c3ccccc3)nc2c1              102
2  N#Cc1nc2ccc(C(=O)NCCCn3ccnc3)cc2nc1-c1ccccc1               24
3  O=C(NCCCc1ccnnc1)c1ccc2nc(N3CCOCC3)c(-c3ccc(F)cc3)nc2c1               90
4  O=C(NCCc1ccccn1)c1ccc2nc(N3CCC(C4CCNCC4)CC3)c(-c3ccccc3)nc2c1               81

Reported inhibition at 1 µM ( NCc1ccc(-c2nc3cc(C(=O)NCCc4cccnc4)ccc3nc2-c2ccccc2)cc1 ) = 13

Query O=C(NCCCn1ccnc1)c1ccc2nc(Nc3ccccc3)c(-c3ccccc3)nc2c1 yields inhibition at 1 µM of 43

Short answer for O=C(NCCCc1cncnc1)c1ccc2nc(N3CCOCC3)c(-c3ccc(F)cc3)nc2c1 : inhibition at 1 µM was 73

Documented inhibition at 1 µM of O=C(NCCCn1ccnc1)c1ccc2nc(N3CCC3)c(-c3ccccc3)nc2c1 : 18

// recorded inhibition at 1 µM for Cc1ccc(CCCNC(=O)c2ccc3nc(N4CCOCC4)c(-c4ccc(F)cc4)nc3c2)cn1 : 50

* * *

# target-entity: hNAMPT protein (Homo sapiens (Human), UniProt P43490)
# procedure-text: NAMPT enzyme assay (TR-FRET/HTRF, BodiPY ligand, anti 6His-Tb)
# Type: binding
# experimental-context: NAMPT IC50 range class; read-out: IC50
pIC50: −log10 of the molar value.
experimental-endpoint: pIC50

Look over these answered cases.
> print(dat)
                                   molecule                             target.entity        result
1  Cc1cc(C)cc(-c2nc3cc(C(=O)NCCCc4ncc[nH]4)ccc3nc2-c2ccc(F)cc2)c1  hNAMPT protein (Homo sapiens (Human), UniProt P43490)  6.30 to 7.00
2  O=C(NCCCc1ncc[nH]1)c1ccc2nc(-c3ccc(F)cc3)c(-c3cccc(OC(F)(F)F)c3)nc2c1  hNAMPT protein (Homo sapiens (Human), UniProt P43490)  6.30 to 7.00
3  O=C(NCc1ccc2[nH]ncc2c1)c1ccc2nc(N3CCOCC3)c(-c3ccc(F)cc3)nc2c1  hNAMPT protein (Homo sapiens (Human), UniProt P43490)  6.30 to 7.00

CC(=O)Nc1cccc(-c2nc3cc(C(=O)NCCCn4ccnc4)ccc3nc2-c2ccccc2)c1 yielded pIC50 of 5.00 to 5.70

* * *

# target-entity: hNAMPT protein (Homo sapiens (Human))
# procedure-text: NAMPT enzyme assay (TR-FRET/HTRF, BodiPY ligand, anti 6His-Tb)
# Format: binding
# experimental-context: NAMPT inhibition at compound concentration 1 μM; read-out: Percent Inhibition
Given measured inhibition at 1 µM, output label 1 if it is greater than or equal to 80% and label 0 if not.

Illustrative cases are given below, each with its answer.
> print(dat)
                                   molecule                          target.entity  assigned.class
1  CC(C)Oc1nc2ccc(C(=O)NCCCc3ncc[nH]3)cc2nc1-c1ccc(F)c(Cl)c1 [Compound I-435]  hNAMPT protein (Homo sapiens (Human))         label 1
2  O=C(NCCCc1ncc[nH]1)c1ccc2nc(OCc3ccccc3Cl)c(-c3ccc(F)cc3)nc2c1 [Compound I-454]  hNAMPT protein (Homo sapiens (Human))         label 1
3  O=C(NCCCc1cnccn1)c1ccc2nc(N3CCCCC3)c(-c3ccc(F)cc3)nc2c1 [Compound I-441]  hNAMPT protein (Homo sapiens (Human))         label 0
4  O=C(NCCCc1ncc[nH]1)c1ccc2nc(-c3ccc(F)cc3)c(-c3cc(Cl)ccc3F)nc2c1 [Compound I-480]  hNAMPT protein (Homo sapiens (Human))         label 1
5  N#CC1(COc2nc3ccc(C(=O)NCCCc4ncc[nH]4)cc3nc2-c2ccc(F)cc2)CCC1 [Compound I-407]  hNAMPT protein (Homo sapiens (Human))         label 1
6  O=C(NCCCc1ncc[nH]1)c1ccc2nc(-n3cnc4ccccc43)c(-c3ccc(F)cc3)nc2c1 [Compound I-453]  hNAMPT protein (Homo sapiens (Human))         label 1
7  CS(=O)(=O)CCOc1nc2ccc(C(=O)NCCCc3ncc[nH]3)cc2nc1-c1ccc(F)cc1 [Compound I-401]  hNAMPT protein (Homo sapiens (Human))         label 0
8  COc1cccc(-c2nc3cc(C(=O)NCCCc4ncc[nH]4)ccc3nc2-c2ccc(F)cc2)n1 [Compound I-495]  hNAMPT protein (Homo sapiens (Human))         label 1

Exercise: Quick check, inhibition at 1 µM >= 80%? O=C(NCCCc1nnc[nH]1)c1ccc2nc(-c3ccc(F)cc3)c(-c3cc(Cl)ccc3F)nc2c1 [Compound I-520]
Key: label 1

* * *

# target-entity: hNAMPT protein (Homo sapiens (Human))
# procedure-text: NAMPT enzyme assay (TR-FRET/HTRF, BodiPY ligand, anti 6His-Tb)
# Assay type: binding
# experimental-context: compound concentration 1 μM; read-out: Percent Inhibition
// label = 1.0 if inhibition at 1 µM is not less than 50%, otherwise 0.0

> print(dat)
                                   molecule                          target.entity  assigned.class
1  CN1CCN(c2nc3ccc(C(=O)NCCCn4ccnc4)cc3nc2-c2ccccc2)CC1=O [Compound I-81]  hNAMPT protein (Homo sapiens (Human))             1.0
2  O=C(NCCn1ccnc1)c1ccc2nc(-c3ccc(F)cc3)c(-c3ccc(F)cc3)nc2c1 [Compound I-270]  hNAMPT protein (Homo sapiens (Human))             0.0
3  CN1CCN(Cc2nc3ccc(C(=O)NCCCn4ccnc4)cc3nc2-c2ccccc2)CC1 [Compound I-259]  hNAMPT protein (Homo sapiens (Human))             0.0

Exercise: Exam item: decide whether the reported inhibition at 1 µM for O=C(NCCCc1ncc[nH]1)c1ccc2nc(Cl)c(-c3ccc(Cl)cc3)nc2c1 [Compound I-50] is at least 50%.
Key: 1.0

Exercise: Textbook exercise: given the entry O=C(NCCCn1ccnc1)c1ccc2nc(-c3ccccc3)c(C3=CCOCC3)nc2c1 [Compound I-162] , state whether its inhibition at 1 µM is greater than or equal to 50%.
Key: 0.0

Exercise: Quick check: does O=C(NCCCc1ncc[nH]1)c1ccc2nc(-n3ccnn3)c(-c3ccc(F)cc3)nc2c1 [Compound I-374] have inhibition at 1 µM greater than or equal to 50%?
Key: 1.0

Exercise: Kindly determine if inhibition at 1 µM recorded for CN1CC=C(c2nc3cc(C(=O)NCCCn4ccnc4)ccc3nc2-c2ccccc2)CC1 [Compound I-3] is above or exactly 50%.
Key: 0.0

Exercise: Has O=C(NCCCc1ncc[nH]1)c1ccc2nc(N3CC4(COC4)C3)c(-c3ccc(F)cc3)nc2c1 [Compound I-154] a recorded inhibition at 1 µM greater than or equal to 50%?
Key: 1.0

Exercise: Say whether Cc1c(F)cc(-c2nc3cc(C(=O)NCCCc4ncc[nH]4)ccc3nc2-c2ccc(F)cc2)cc1F [Compound I-306] shows inhibition at 1 µM of 50% or more.
Key: 1.0

Exercise: inhibition at 1 µM >= 50% for O=C(NCCCn1ccnc1)c1ccc2nc(C3=CCCCC3)c(-c3ccccc3)nc2c1 [Compound I-240] ?
Key: 1.0

Exercise: Identify whether the reported inhibition at 1 µM of the following molecule is 50% or greater: O=C(NCCCn1ccnc1)c1ccc2nc(N3CCCC3)c(-c3ccccc3)nc2c1 [Compound I-206]
Key: 1.0

Exercise: Does O=C(NCCc1c[nH]c2ccccc12)c1ccc2nc(-c3ccc(F)cc3)c(-c3ccc(F)cc3)nc2c1 [Compound I-293] have a reported inhibition at 1 µM of at least 50%?
Key: 0.0

Exercise: Hi, just wondering whether O=C(NCCc1cn2c(n1)SCC2)c1ccc2nc(-c3ccc(F)cc3)c(-c3ccc(F)cc3)nc2c1 [Compound I-238] shows inhibition at 1 µM of 50% or higher.
Key: 0.0

Exercise: API: above_or_equal(metric=inhibition at 1 µM, cutoff=50%) for item Cn1cc(-c2nc3cc(C(=O)NCCCn4ccnc4)ccc3nc2-c2ccccc2)cn1 [Compound I-167]
Key: 0.0
